Taken from paper PMC7402526.

Hi there, I'd appreciate the recorded activity at 0.0002 µM for every entry that follows.
System: hematopoietic stem cells (HSCs)
experiment-summary: Multi-lineage toxicity assay (MLTA), HSCs: concentration-response and QSP model fit
Format: cell-based, human
settings: Homo sapiens, Hematopoietic stem cell, 144 h; dose 0.2 nM, 6 days, normalized to vehicle control; read-out: HSCs normalized cell count
Report as a plain number; the unit % is understood.

Return activity at 0.0002 µM for the following compound: CCc1cnn2c(NCc3ccc[n+]([O-])c3)cc(N3CCCC[C@H]3CCO)nc12
89.5

Return activity at 0.0002 µM for the following compound: CN(C)C(=O)c1cc2cnc(Nc3ccc(N4CCNCC4)cn3)nc2n1C1CCCC1
90.3

Return activity at 0.0002 µM for the following compound: CS(=O)(=O)N1CCN(Cc2cc3nc(-c4cccc5[nH]ncc45)nc(N4CCOCC4)c3s2)CC1
89.1

Return activity at 0.0002 µM for the following compound: CC(=O)c1c(C)c2cnc(Nc3ccc(N4CCNCC4)cn3)nc2n(C2CCCC2)c1=O
89.4

Return activity at 0.0002 µM for the following compound: CCN1CCN(Cc2ccc(Nc3ncc(F)c(-c4cc(F)c5nc(C)n(C(C)C)c5c4)n3)nc2)CC1
89.3
